Recorded GI50, one value per entry.
Tested on: SF-268
procedure_details: NCI tumour cell line growth inhibition, 48 h
Active and inactive are the calls of the source. No stated cut-off is given here; in the data, active = GI50 up to about 1.1 µM and inactive = higher.

// fetch SF-268 GI50 for CCCNC(=O)CCC(C)C1CCC2C3C(C[C@H](OC(C)=O)[C@]12C)[C@@]1(C)CCC2(C[C@H]1C[C@H]3OC(C)=O)OOC1(CC[C@]3(C)C4C[C@H](OC(C)=O)[C@]5(C)C(C(C)CCC(=O)NCCC)CCC5C4[C@H](OC(C)=O)C[C@@H]3C1)OO2 (stereo not given in full)
32.1 µM (inactive)

Subsequent entry: Cc1ccc(-c2n[nH]c(=O)[nH]2)cc1
> 100 µM (inactive)

Subsequent entry: O=C(O)c1cc(C(=O)C(=O)c2cc(C(=O)O)c(O)c3ccccc23)c2ccccc2c1O
> 100 µM (inactive)

Subsequent entry: C#CCn1c(=O)c(C#N)c(O)c2cc3ccccc3nc21
> 31.6 µM (inactive)

Subsequent entry: CCSc1n/c(=C\c2ccco2)c2nncn12
> 100 µM (inactive)

Subsequent entry: c1ccc(N/N=C2\CC(c3ccccc3)Oc3ccccc32)cc1 (stereo not given)
35.8 µM (inactive)

Subsequent entry: O=[N+]([O-])c1ccc(SN=S=NSc2cccc(SN=S=NSc3ccc([N+](=O)[O-])cc3)c2)cc1
33 µM (inactive)
